# TARGET OF ASSAY: human recombinant LPA2 (Homo sapiens, UniProt Q9HBW0)
# Construct: expressed in transfected cells; host or cells: CHO (CHO-hLPA2 cell line)
# Sequence (Q9HBW0 whole entry): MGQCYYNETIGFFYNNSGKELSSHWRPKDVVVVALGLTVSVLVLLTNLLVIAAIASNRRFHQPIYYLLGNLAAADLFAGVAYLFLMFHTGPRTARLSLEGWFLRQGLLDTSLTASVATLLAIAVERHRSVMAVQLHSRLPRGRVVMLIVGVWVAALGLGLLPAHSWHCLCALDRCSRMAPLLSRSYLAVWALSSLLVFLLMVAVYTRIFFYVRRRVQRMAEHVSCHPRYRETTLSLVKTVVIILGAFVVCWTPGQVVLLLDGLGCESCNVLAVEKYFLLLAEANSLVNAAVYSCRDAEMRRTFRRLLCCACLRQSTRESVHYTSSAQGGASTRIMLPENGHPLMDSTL
# ASSAY PROCEDURE: FLIPR calcium mobilization assay, LPA2 antagonism in CHO-hLPA2 cells
# Type: cell-based
# CONDITION DETAILS: human recombinant LPA2 in CHO cells, LPA EC80 stimulation, 30 min pre-incubation; read-out: LPA2 IC50
pIC50: −log10 of the molar value.
READOUT NAME: pIC50

-- ask Please supply the value of reported pIC50 for the item `CC(=O)N1CCc2cc(S(=O)(=O)N3CCN(C[C@H](C)Nc4ncnc5c(C)csc45)CC3)ccc21`
-- reply > 6.00

-- ask Please supply the value of reported pIC50 for the item `Cc1nc(NC=O)sc1S(=O)(=O)N1CCN(C[C@H](C)Nc2ncnc3c(C)csc23)CC1`
-- reply > 6.00

-- ask Please supply the value of reported pIC50 for the item `COC(=O)c1ccc(S(=O)(=O)N2CCN(C[C@H](C)Nc3ncnc4c(C)csc34)CC2)s1`
-- reply > 6.00

-- ask Please supply the value of reported pIC50 for the item `COC(=O)Nc1nc(C)c(S(=O)(=O)N2CCN(C[C@H](C)Nc3ncnc4c(C(F)(F)F)csc34)CC2)s1`
-- reply 7.00 to 8.00

-- ask Please supply the value of reported pIC50 for the item `CCC(=O)Nc1nc(C)c(S(=O)(=O)N2CCN(C[C@H](C)Nc3ncnc4c(C)csc34)CC2)s1`
-- reply > 6.00

---

# TARGET OF ASSAY: human recombinant LPA2 (Homo sapiens, UniProt Q9HBW0)
# Construct: expressed in transfected cells; host or cells: CHO (CHO-hLPA2 cell line)
# ASSAY PROCEDURE: FLIPR calcium mobilization assay, LPA2 antagonism in CHO-hLPA2 cells
# Type: cell-based
# CONDITION DETAILS: human recombinant LPA2 in CHO cells, LPA EC80 stimulation, 30 min pre-incubation; read-out: LPA2 IC50
pIC50: −log10 of the molar value.
pIC50 overview

Record excerpt, results attached:
- MOLECULE: "CC(=O)Nc1ncc(S(=O)(=O)N2CCN(C[C@H](C)Nc3nc(C4CC4)nc4c(C)csc34)CC2)s1 [Example 22]"
  TARGET OF ASSAY: "human recombinant LPA2 (Homo sapiens, UniProt Q9HBW0)"
  pIC50: "> 6.00"
- MOLECULE: "COC(=O)Nc1nc(C)c(S(=O)(=O)N2CCN(C[C@H](C)Nc3ncnc4c(C)csc34)CC2)s1 [Example 20]"
  TARGET OF ASSAY: "human recombinant LPA2 (Homo sapiens, UniProt Q9HBW0)"
  pIC50: "> 6.00"
- MOLECULE: "COC(=O)Nc1nc(C)c(S(=O)(=O)N2CCN(C[C@H](C)Nc3nc(Cl)nc4c(C(F)(F)F)csc34)CC2)s1 [Example 32]"
  TARGET OF ASSAY: "human recombinant LPA2 (Homo sapiens, UniProt Q9HBW0)"
  pIC50: "> 6.00"
- MOLECULE: "Cc1csc2c(N[C@@H](C)CN3CCN(S(=O)(=O)c4ccc(F)c(Cl)c4)CC3)ncnc12 [Example 9]"
  TARGET OF ASSAY: "human recombinant LPA2 (Homo sapiens, UniProt Q9HBW0)"
  pIC50: "> 6.00"
- MOLECULE: "Cc1nc2ccc(S(=O)(=O)N3CCN(C[C@H](C)Nc4ncnc5c(C)csc45)CC3)cc2s1 [Example 23]"
  TARGET OF ASSAY: "human recombinant LPA2 (Homo sapiens, UniProt Q9HBW0)"
  pIC50: "> 6.00"

-- ask Please supply the value of reported pIC50 for the item COC(=O)c1cc(Br)c(S(=O)(=O)N2CCN(C[C@H](C)Nc3ncnc4c(C)csc34)CC2)s1 [Example 13]
-- reply > 6.00

-- ask Please supply the value of reported pIC50 for the item CCc1nc(N[C@@H](C)CN2CCN(S(=O)(=O)c3sc(NC(=O)OC)nc3C)CC2)c2scc(C)c2n1 [Example 38]
-- reply 7.00 to 8.00
